Attribution: paper PMC8861424

Biological target: FLT3 (Homo sapiens, UniProt P36888)
Sequence (P36888 27-993): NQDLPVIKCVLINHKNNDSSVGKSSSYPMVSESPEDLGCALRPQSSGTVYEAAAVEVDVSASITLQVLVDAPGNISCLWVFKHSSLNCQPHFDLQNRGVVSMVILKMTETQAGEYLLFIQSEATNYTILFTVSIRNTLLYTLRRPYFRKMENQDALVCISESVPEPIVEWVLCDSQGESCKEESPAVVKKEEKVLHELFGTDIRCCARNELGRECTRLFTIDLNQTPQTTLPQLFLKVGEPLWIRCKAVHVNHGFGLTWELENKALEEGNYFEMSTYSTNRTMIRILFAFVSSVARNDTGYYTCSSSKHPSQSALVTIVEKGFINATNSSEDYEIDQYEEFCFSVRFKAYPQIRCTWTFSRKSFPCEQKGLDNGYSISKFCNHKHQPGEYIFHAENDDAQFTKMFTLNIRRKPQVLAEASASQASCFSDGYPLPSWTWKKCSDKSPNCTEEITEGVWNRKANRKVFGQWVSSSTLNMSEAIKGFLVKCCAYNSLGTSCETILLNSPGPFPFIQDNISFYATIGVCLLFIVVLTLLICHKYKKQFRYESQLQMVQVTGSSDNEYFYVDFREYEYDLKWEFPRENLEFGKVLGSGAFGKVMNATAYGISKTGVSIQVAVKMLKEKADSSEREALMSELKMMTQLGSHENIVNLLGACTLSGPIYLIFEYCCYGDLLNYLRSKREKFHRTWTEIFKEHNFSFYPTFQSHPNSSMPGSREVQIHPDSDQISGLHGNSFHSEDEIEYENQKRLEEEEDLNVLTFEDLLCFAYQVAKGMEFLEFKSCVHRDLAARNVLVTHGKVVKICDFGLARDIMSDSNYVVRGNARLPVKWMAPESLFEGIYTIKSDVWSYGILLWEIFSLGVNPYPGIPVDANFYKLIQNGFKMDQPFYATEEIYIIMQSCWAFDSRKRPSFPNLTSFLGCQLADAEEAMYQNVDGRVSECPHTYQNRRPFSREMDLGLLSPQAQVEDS
assay endpoint: IC50 (pM)
One number for each entry, in pM.

Lookup result for Cc1[nH]c(/C=C2\C(=O)Nc3ccc(F)cc32)c(C)c1C(=O)N[C@H]1CCN(C(=O)N(C)C)C1 ; measured IC50: 630

----------
system: HCT-116; experiment: Cancer cell proliferation assay; assay type: cell-based; details: Homo sapiens, HCT-116, 72 h, read-out: IC50, cell proliferation
assay endpoint: pIC50
Numbers only, as −log10 of the molar value.

Lookup result for CCN(CC)CCNC(=O)c1c(C)[nH]c(/C=C2\C(=O)Nc3ccc(F)cc32)c1C [Sunitinib, reference compound] ; measured pIC50: 5.60

----------
test system: VEGF165-induced Primary HUVECs; assay: VEGF165-induced HUVEC proliferation; type: cell-based; settings: Homo sapiens, 72 h, read-out: IC50, cell proliferation
assay endpoint: pIC50
Give bare numbers, as −log10 of the molar value.

# compound, tested target, observed measurement
measured = [
    ("Cc1[nH]c(/C=C2\\C(=O)Nc3ccc(F)cc32)c(C)c1C(=O)N[C@H]1CCN(C(=O)N(C)C)C1 [Vorolanib]", "VEGF165-induced Primary HUVECs", 7.03),
]

Lookup result for CCN(CC)CCNC(=O)c1c(C)[nH]c(/C=C2\C(=O)Nc3ccc(F)cc32)c1C [Sunitinib, reference compound] ; measured pIC50: 7.90
